assay_remarks: yeast display, Sf9 membrane polyspecificity reagent, FACS + sequencing; frameworks hold sequencing errors
quantity_measured: polyreactivity (PSR sort gate)

QVQLVESGGGLVQAGGSLRLSCAASGRTFNYYTMGWYRQAPGKERELVAAISWSGDSTYYADSVKGRFTISRDNAKNTVYLQMNSLKPEDTAVYYCAAGYASGPRPQTAYYYWGQGTQVTVSS : low polyreactivity
QVQLVESGGGLVQAGGSLRLSCAASGSIFPWNAMGWYRQAPGKERELVAAISFSSGGSTYYADSVKGRFTISRDNAKNTVYLQMNSLKPEDPAVYYCAARTKLWVLGNYYYWGQGTQVTVSS : high polyreactivity
QVQLVESGGGLVQAGGSLRLSCAASGRIFVYYAMGWYRQAPGKERELVAAIRWTGGSTYYADSVKGRFTISRDNAKNTVYLQMNSLKPEDTAVYYCATVNRYGHFNYWGQGTQVTVSS : high polyreactivity
QVQLVESGGGLVQAGGSLRLSCAASGSIFGYYAMGWYRQAPGKERELVASITRSGDTTYYADSVKGRFTISRDNAKNTVYLQMNSLKPEDTAVYYCAARRWRWYYDGFVRMDYWGQGTQVTVSS : high polyreactivity
QVQLVESGGGLVQAGGSLRLSCAASGLIFYYYAMGWYRPAPGKERELVAAISRRGGSTYYADSVKGRFTISRDNAKNTVYLQMNSLKPEDTAVYYCNKYRSYWSGPSYWREYDYWGQGTQVTVSS : high polyreactivity

Report measured polyreactivity (PSR sort gate); entry is QVQLVESGGGLVQAGGSLRLSCAASGSTFGRNVIGWYRQAPGKERELVAAISIRGGSTYYADSVKGRFTISRDIAKNTVYLQMNSLKPEDTAVYYCALDYPTDAYDYWGQGTQVTVSS
low polyreactivity

Given QVQLVESGGGLVQAGGSLRLSCAASGRTFYINAMGWYRQAPGKERELVATISRSGGDTYYADSVKGRFTISRDNAKNTVYLQMNSLKPEDTAVYYCNARQYYYRSGAYASRYLYNYWGQGTQVTVSS , respond with its polyreactivity (PSR sort gate).
high polyreactivity

Supply measured polyreactivity (PSR sort gate) of QVQLVESGGGLFQAGGRLRLICAASGRIFTTNAMGWYRQAPGKERELVPAISRSGGSTNYADSVKGRFTISRDNAKNTVYLQMNSLIPEDTAVYYCAAVPTCNSFRSSFYYWGQGTQVTVSS in your reply.
high polyreactivity

---

assay_remarks: yeast display, Sf9 membrane polyspecificity reagent, FACS + sequencing; frameworks hold sequencing errors
quantity_measured: polyreactivity (PSR sort gate)

Recorded polyreactivity (PSR sort gate), per entry:
QVQLEESGGGIVQAGGSLRLSSAASGRIYTPNAMGSYRQAPGKERELVAAITWSGGSTYYADSVKGRFTISRDNAKNTVYLQMNRLKPEDTAVYYCAVRYSRNLMYYWGQATQVTVSS : high polyreactivity
QVQLVESGGGLVQAGGSLRLSCAASGSIFITYAMGWYRQAPGKERELVAAITDSGDSTYYADSVKGRFTISRDNAKNTVYLQMISLKPEDTAVYYCAKRYYGSYSHFIRTDGYWGQGTQVTVSS : low polyreactivity
QVQLVESGGGLVQAGGSLRLSCAASGSTFLPNAMGWYRQPPGKERELVAAITNSGGNTYADSVKGRFTISRDNAKNTVYLQMNSLKPEDTAVYYCNARFSPTGWARGNDYWGQGTQVTVSS : low polyreactivity
QVQLVESGGGLVQAGGSLRLSCAASGSTFHRYAMGWYRQAPGKERELVATITSRGGITYYADSVKGRFTISRDNSKNTVYLQMNSLNPEDTALYYCNTEDGTTPQYGYDQGMYYWGQGTQVTVSS : low polyreactivity

Would you kindly look at the next entry?
Provide polyreactivity (PSR sort gate) value for the following sequence: QVQLVESGGGLVQAGGSLRLSCAASGIIFDEYAMGWYRQAPGKEREMVAAITSGGSTYYADSVKGRFTISRDNAKNTVYLQMNSLKPEDTAVYYCNAYSSYGTFFYWAWPYYYWGQGTQVTVSS
high polyreactivity
